# Tgt: His6‐FraB (Salmonella FraB deglycase) (Salmonella enterica subsp. enterica serovar Typhimurium)
# Experiment notes: FraB-G6PD coupled assay, Michaelis–Menten analysis for K I and mode of inhibition
# Type: biochemical
# Measurement setup: IC50 (IC50 versus [S]/Km plots), Trial 2; 6-P-F-Asp 500 µM, S/Km 11.90476; unit from Fig. S11 axis
# Description: To determine the K I of each inhibitor, 29 μL of master mix was added to two rows of a 384‐well Greiner plate, using a single‐channel pipette, and incubated at 20 °C for 20 min. […] The initial velocities used to generate the Michaelis–Menten plots were also employed to obtain the IC50 vs [S]/K m plots. […] The IC50 values determined from the IC50 vs [S]/K m plots were then used to plot 1/IC50 versus v o/V max. […]
pIC50: −log10 of the molar value.
Measurement name: pIC50

- Fc1ccc(-c2nn3c(-c4ccccn4)nnc3s2)cc1 [3469:N17]: 4.48

====

# Tgt: UniProt:Q8ZLD0
# Experiment notes: FraB-G6PD coupled assay, Michaelis–Menten analysis for K I and mode of inhibition
# Format: biochemical
# Measurement setup: IC50 (IC50 versus [S]/Km plots), Trial 1; 6-P-F-Asp 31.3 µM, S/Km 0.745238; unit from Fig. S11 axis
Measurement name: IC50 (µM)

• Fc1ccc(-c2nn3c(-c4ccccn4)nnc3s2)cc1 = 40.9

====

# Tgt: His6‐FraB (Salmonella FraB deglycase) (Salmonella enterica subsp. enterica serovar Typhimurium, UniProt Q8ZLD0)
# Sequence (Q8ZLD0 entry or part of it): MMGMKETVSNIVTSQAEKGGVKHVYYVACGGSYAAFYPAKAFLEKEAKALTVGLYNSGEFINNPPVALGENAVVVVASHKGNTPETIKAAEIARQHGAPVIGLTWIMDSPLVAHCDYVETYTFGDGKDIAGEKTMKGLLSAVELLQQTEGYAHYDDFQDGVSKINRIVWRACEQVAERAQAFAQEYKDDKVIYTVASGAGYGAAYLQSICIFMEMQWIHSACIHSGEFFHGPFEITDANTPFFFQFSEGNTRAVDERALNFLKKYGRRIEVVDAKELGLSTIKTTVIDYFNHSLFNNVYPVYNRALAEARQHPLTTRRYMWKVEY
# Experiment notes: FraB-G6PD coupled assay, Michaelis–Menten analysis for K I and mode of inhibition
# Type: biochemical
# Measurement setup: Trial 1; 6-P-F-Asp 2000 µM, S/Km 47.61905; unit from Fig. S11 axis; read-out: IC50 (IC50 versus [S]/Km plots)
Labelling: IC50 reported below 20 µM becomes t; at or above becomes f.

* c1ccc(-c2nnc3sc(C4COc5ccccc5O4)nn23)nc1 (centres unmarked) | f
* O=c1[nH][nH]c(=S)n1Cc1ccccc1 | t
* Cc1cccc(Cl)c1-n1sc(=O)n(CC2CC2)c1=O | t
* O=c1sn(-c2ccccc2C(F)(F)F)c(=O)n1CC1CC1 | t
* CC(C)Cc1cc(-c2nn3c(-c4ccccc4Cl)nnc3s2)n[nH]1 | f

====

# Tgt: His6‐FraB (Salmonella FraB deglycase) (Salmonella enterica subsp. enterica serovar Typhimurium, UniProt Q8ZLD0)
# Experiment notes: FraB-G6PD coupled assay, Michaelis–Menten analysis for K I and mode of inhibition
# Assay type: biochemical
# Measurement setup: IC50 (IC50 versus [S]/Km plots), Trial 2; 6-P-F-Asp 2000 µM, S/Km 47.61905; unit from Fig. S11 axis
Measurement name: IC50 (µM)

- Fc1ccc(-c2nn3c(-c4ccccn4)nnc3s2)cc1 [3469:N17]: 39.2

====

Items are presented alongside their recorded IC50.
# Tgt: His6‐FraB (Salmonella FraB deglycase) (Salmonella enterica subsp. enterica serovar Typhimurium)
# Experiment notes: FraB-G6PD coupled assay, Michaelis–Menten analysis for K I and mode of inhibition
# Assay type: biochemical
# Measurement setup: Trial 2; 6-P-F-Asp 2000 µM, S/Km 47.61905; unit from Fig. S11 axis; read-out: IC50 (IC50 versus [S]/Km plots)
Measurement name: IC50

• Cc1cccc(Cl)c1-n1sc(=O)n(CC2CC2)c1=O = 5.2035 µM
• O=c1sn(-c2ccccc2C(F)(F)F)c(=O)n1CC1CC1 = 1.37 µM
• CC(C)Cc1cc(-c2nn3c(-c4ccccc4Cl)nnc3s2)n[nH]1 = 11.1 µM
• O=c1[nH][nH]c(=S)n1Cc1ccccc1 = 20.8 µM
• c1ccc(-c2nnc3sc(C4COc5ccccc5O4)nn23)nc1 (centres unmarked) = 59.2 µM

====

Let's look at some compounds and their measured pKi.
# Tgt: His6‐FraB (Salmonella FraB deglycase) (Salmonella enterica subsp. enterica serovar Typhimurium, UniProt Q8ZLD0)
# Experiment notes: FraB-G6PD coupled assay, Michaelis–Menten analysis for K I and mode of inhibition
# Type: biochemical
# Measurement setup: single trial shown in Fig. 5; read-out: KI from α′ vs [I] plot
pKi: −log10 of the molar value.
Measurement name: pKi

- CC(C)Cc1cc(-c2nn3c(-c4ccccc4Cl)nnc3s2)n[nH]1: 4.85
- O=c1[nH][nH]c(=S)n1Cc1ccccc1: 4.96

====

IC50 values, listed per item
# Tgt: His6‐FraB (Salmonella FraB deglycase) (Salmonella enterica subsp. enterica serovar Typhimurium)
# Experiment notes: FraB-G6PD coupled assay, Michaelis–Menten analysis for K I and mode of inhibition
# Format: biochemical
# Measurement setup: Trial 2; 6-P-F-Asp 15.7 µM, S/Km 0.37381; unit from Fig. S11 axis; read-out: IC50 (IC50 versus [S]/Km plots)
Measurement name: IC50 (µM)

• c1ccc(-c2nnc3sc(C4COc5ccccc5O4)nn23)nc1 (centres unmarked) = 41.3
• Cc1cccc(Cl)c1-n1sc(=O)n(CC2CC2)c1=O = 5.1146
• O=c1sn(-c2ccccc2C(F)(F)F)c(=O)n1CC1CC1 = 1.49
• O=c1[nH][nH]c(=S)n1Cc1ccccc1 = 24.7
• CC(C)Cc1cc(-c2nn3c(-c4ccccc4Cl)nnc3s2)n[nH]1 = 13.6

====

# Tgt: His6‐FraB (Salmonella FraB deglycase) (Salmonella enterica subsp. enterica serovar Typhimurium)
# Experiment notes: FraB-G6PD coupled assay, Michaelis–Menten analysis for K I and mode of inhibition
# Format: biochemical
# Measurement setup: IC50 (IC50 versus [S]/Km plots), Trial 2; 6-P-F-Asp 31.3 µM, S/Km 0.745238; unit from Fig. S11 axis
pIC50: −log10 of the molar value.
Measurement name: pIC50

• Fc1ccc(-c2nn3c(-c4ccccn4)nnc3s2)cc1 = 4.32

====

Catalogue of compounds with associated IC50
# Tgt: His6‐FraB (Salmonella FraB deglycase) (Salmonella enterica subsp. enterica serovar Typhimurium)
# Experiment notes: FraB-G6PD coupled assay, Michaelis–Menten analysis for K I and mode of inhibition
# Format: biochemical
# Measurement setup: Trial 1; 6-P-F-Asp 250 µM, S/Km 5.952381; unit from Fig. S11 axis; read-out: IC50 (IC50 versus [S]/Km plots)
# Protocol: To determine the K I of each inhibitor, 29 μL of master mix was added to two rows of a 384‐well Greiner plate, using a single‐channel pipette, and incubated at 20 °C for 20 min. […] The initial velocities used to generate the Michaelis–Menten plots were also employed to obtain the IC50 vs [S]/K m plots. […] The IC50 values determined from the IC50 vs [S]/K m plots were then used to plot 1/IC50 versus v o/V max. […]
Measurement name: IC50 (µM)

- c1ccc(-c2nnc3sc(C4COc5ccccc5O4)nn23)nc1 (centres unmarked): 31.8
- Cc1cccc(Cl)c1-n1sc(=O)n(CC2CC2)c1=O: 4.497
- CC(C)Cc1cc(-c2nn3c(-c4ccccc4Cl)nnc3s2)n[nH]1: 20.6
- O=c1[nH][nH]c(=S)n1Cc1ccccc1: 19.6
- O=c1sn(-c2ccccc2C(F)(F)F)c(=O)n1CC1CC1: 1.47

====

pIC50 by entry:
# Tgt: His6‐FraB (Salmonella FraB deglycase) (Salmonella enterica subsp. enterica serovar Typhimurium)
# Experiment notes: FraB-G6PD coupled assay, IC50 determination
# Assay type: biochemical
# Measurement setup: Trial 2; 0.25 mM 6-P-F-Asp; unit in Fig. S10; read-out: IC50 (curve fit of IC50 plots, Fig. S10)
# Source text: The substrate for FraB, 6‐P‐F‐Asp, was synthesized as previously described. FraB activity was monitored as described previously, with the following changes. […] NADH generation was monitored using either absorbance (340 nm) or fluorescence (350 nm excitation, 450 nm emission) and with either an INFINITE M1000 PRO (Tecan, Mannedorf, Switzerland) or Synergy H1 (Biotek, Winooski, VT, USA) plate reader. Absorbance/fluorescence was plotted against time and slopes were obtained by linear regression analyses. […]
pIC50: −log10 of the molar value.
Measurement name: pIC50

- c1ccc(-c2nnc3sc(C4COc5ccccc5O4)nn23)nc1 (stereo not drawn) [3469:F02]: 4.41
- CC(C)Cc1cc(-c2nn3c(-c4ccccc4Cl)nnc3s2)n[nH]1 [3470:A09]: 4.82
- O=c1[nH][nH]c(=S)n1Cc1ccccc1 [1533:K12]: 4.63

====

# Tgt: His6‐FraB (Salmonella FraB deglycase) (Salmonella enterica subsp. enterica serovar Typhimurium, UniProt Q8ZLD0)
# Experiment notes: FraB-G6PD coupled assay, Michaelis–Menten analysis for K I and mode of inhibition
# Format: biochemical
# Measurement setup: Trial 1; 6-P-F-Asp 7.38 µM, S/Km 0.175714; unit from Fig. S11 axis; read-out: IC50 (IC50 versus [S]/Km plots)
Measurement name: IC50

- O=c1[nH][nH]c(=S)n1Cc1ccccc1: 26.2 µM
- O=c1sn(-c2ccccc2C(F)(F)F)c(=O)n1CC1CC1: 1.08 µM
- c1ccc(-c2nnc3sc(C4COc5ccccc5O4)nn23)nc1 (stereo not shown): 18.9 µM
- Cc1cccc(Cl)c1-n1sc(=O)n(CC2CC2)c1=O: 5.182 µM

The reported measurements were obtained from paper PMC12051030.
